molecular target: mPTPB (Mycobacterium tuberculosis protein tyrosine phosphatase B) (Mycobacterium tuberculosis); construct: gene ptpB; assay: biochemical; set-up: mPTPB phosphatase inhibition, pNPP substrate, absorbance at 405 nm; details: read-out: 50 uM inhibition rate (%)
Sequence (I6WXK4 whole entry, looked up): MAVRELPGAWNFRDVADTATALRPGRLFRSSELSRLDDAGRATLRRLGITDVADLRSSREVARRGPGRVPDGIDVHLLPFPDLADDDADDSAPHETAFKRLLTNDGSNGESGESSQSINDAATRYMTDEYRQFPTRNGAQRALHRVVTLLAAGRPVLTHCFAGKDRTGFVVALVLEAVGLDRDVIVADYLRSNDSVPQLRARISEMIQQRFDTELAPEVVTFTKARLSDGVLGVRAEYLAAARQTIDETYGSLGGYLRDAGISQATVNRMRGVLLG
Below is a list of entries, each paired with its recorded inhibition at 50 µM value.
Just the number in %, nothing appended.

{"molecule": "CC(C)C1CCC2(C)CCC3(CO)CC4=C(CO)CCC4C4(C)CC4C3C12 (stereo not shown)", "result units": "%", "inhibition at 50 µM": 48}
{"molecule": "CC(C)C1CCC2(C)CCC3(C)CC4=C(CO)CCC4C4(C)CC4C3C12 (stereo not shown)", "result units": "%", "inhibition at 50 µM": 46.8}
{"molecule": "CC(C)[C@H]1C[C@@H](O)[C@@]2(C)CC[C@]3(CO)CC4=C(C(=O)O)CC[C@H]4[C@]4(C)C[C@@H]4[C@H]3[C@H]12", "result units": "%", "inhibition at 50 µM": 45.1}
{"molecule": "CC(C)[C@H]1CC[C@@]2(C)CC[C@]3(CO)CC4=C(C(=O)O)CC[C@H]4[C@]4(C)C[C@@H]4[C@H]3[C@H]12", "result units": "%", "inhibition at 50 µM": 98.2}
{"molecule": "CC(C)[C@H]1CC[C@@]2(C)CC[C@]3(C(=O)O)CC4=C(C(=O)O)CC[C@H]4[C@]4(C)C[C@@H]4[C@H]3[C@H]12", "result units": "%", "inhibition at 50 µM": 98.9}

inhibition at 50 µM reading for CC(C)C1CCC2(C)CCC3(C)CC4=C(C(=O)O)CCC4C4(C)CC4C3C12 (stereo not shown) : 52.8

inhibition at 50 µM reading for `CC1=C2C[C@@]3(C)CC[C@]4(C)CC[C@H](C(C)C)[C@H]4[C@@H]3[C@H]3C[C@@]3(C)[C@@H]2CC1` : 31.1
